Each recorded value in this set is attributed to patent US9540424B2.

MEASUREMENT_NOTES: Analytical size exclusion chromatography (SEC) of SABAs
Format: physicochemical
ASSAY_CONTEXT: midscaled material
Reported SEC Dimer (%) is given for each of the following molecules.

MOLECULE	SEC Dimer (%)
SABA2.1: His-tagged SABA2 sequence (protein, His6 tag) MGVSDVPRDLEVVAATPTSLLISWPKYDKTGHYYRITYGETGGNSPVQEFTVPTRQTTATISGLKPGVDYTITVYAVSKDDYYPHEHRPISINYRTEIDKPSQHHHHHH	9
SABA5.1: His-tagged SABA5 sequence (protein, His6 tag) MGVSDVPRDLEVVAATPTSLLISWEDDSYYSRYYRITYGETGGNSPVQEFTVPSDLYTATISGLKPGVDYTITVYAVTYDVTDLIMHEPISINYRTEIDKPSQHHHHHH	12
SABA1.1: core SABA1 with N-terminal MGVSDVPRDLE, C-terminal EIDKPSQ and His6 tag; SEQ ID NO: 89 (protein) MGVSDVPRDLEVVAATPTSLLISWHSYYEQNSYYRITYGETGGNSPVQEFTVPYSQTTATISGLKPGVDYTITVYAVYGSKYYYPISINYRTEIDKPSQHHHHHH	7.7
